Every entry's value here was drawn from patent US10125134B2.

System: NCI-H358 cells (express KRas G12C), Phospho-ERK
assay details: Cellular inhibition of KRas G12C: Phospho-ERK in NCI-H358 cells
Assay type: cell-based
condition context: Homo sapiens, NCI-H358, 3 h, pERK(Thr202/Tyr204) normalized with GAPDH; NCI-H358 cells; 3 hours; read-out: IC50
pIC50: −log10 of the molar value.
Overview of reported pIC50 across a group of compounds:

Examples with their reported pIC50 follow.
C=CC(=O)N1CCN(c2nc(OC[C@@H]3CCCN3C)nc3c2CCN(c2cccc(Cl)c2C)C3)C[C@@H]1CC#N [Example 419] : 6.00 to 10.00
C=CC(=O)N1CCN(c2nc(OC[C@@H]3CN(C)CCN3)nc3c2CCN(c2cccc4ccccc24)C3)CC1CC#N (stereo partly shown) [Example 223] : 6.00 to 10.00
C=CC(=O)N1CCN(c2nc(OCCN3CCN(C(C)=O)CC3)nc3c2CCN(c2cc(O)cc4ccccc24)C3)CC1 [Example 37] : < 6.00
C=CC(=O)N1CCN(c2nc(OC[C@@H]3CCCN3C)nc3c2CCN(c2ccc(F)c4ccccc24)C3)C[C@@H]1CC#N [Example 316] : 6.00 to 10.00
C=CC(=O)N1CCN(c2nc(OC[C@@H]3CCCN3C)nc3c2CCN(c2ccccc2C(F)F)C3)CC1CC#N (stereo partly shown) [Example 447] : 6.00 to 10.00
C=CC(=O)N1CCN(c2nc(OCCN3CCOCC3)nc3c2CCN(c2cc(O)cc4ccccc24)C3)CC1 [Example 117] : < 6.00

Consider the additional compound presented here.
# input Report pIC50 for C=CC(=O)N1CCN(c2nc(OC[C@@H]3CCCN3C)nc3c2CCN(c2nccc4ccccc24)C3)CC1CC#N (stereo partly shown) [Example 258] please.
# output < 6.00

* * *

System: NCI-H358 cells (express KRas G12C), Phospho-ERK
assay details: Cellular inhibition of KRas G12C: Phospho-ERK in NCI-H358 cells
Type: cell-based
condition context: Homo sapiens, NCI-H358, 3 h, pERK(Thr202/Tyr204) normalized with GAPDH; NCI-H358 cells; 3 hours; read-out: IC50
Here the recorded IC50 is given for each entry.

These recorded examples may help you get a feel for the data.
C=CC(=O)N1CCN(c2nc(OC[C@@H]3CCCN3C)nc3c2CCN(c2cccc4cccc(Br)c24)C3)C[C@@H]1CC#N : 0.1 to 1000 nM
C=CC(=O)N1C[C@@H](C)N(c2nc(OC[C@@H]3CCCN3C)nc3c2CCN(c2cccc4ccccc24)C3)C[C@@H]1CC#N : 0.1 to 1000 nM
C=CC(=O)N1CCN(c2nc(O[C@H](C)[C@H]3CCCN3C)nc3c2CCN(c2cc(O)cc4ccccc24)C3)CC1 : 0.1 to 1000 nM
C=CC(=O)N1CCN(c2nc(OC[C@@H]3CCCN3C)nc3c2CCN(c2ccccc2C(F)(F)F)C3)C[C@@H]1CC#N [Example 237, 2,2,2-trifluoroacetate] : 0.1 to 1000 nM
C=CC(=O)N1CCN(c2nc(OCC(O)CN3CCOCC3)nc3c2CCN(c2cc(O)cc4ccccc24)C3)CC1 (stereo not drawn) : > 1000 nM

# input Recall the recorded IC50 for `C=CC(=O)N1CCN(c2nc(OC[C@@H]3CCCN3C)nc3c2CCN(c2c(C)c(C)cc4[nH]ncc24)C3)CC1` with NCI-H358 cells (express KRas G12C), Phospho-ERK and state it.
# output 0.1 to 1000 nM
